Data origin: ChEMBL document CHEMBL4190276

Provide the reported pIC50 of each item.
- assay-target: Amine oxidase [flavin-containing] A (Homo sapiens)
- Sequence (P21397 whole entry): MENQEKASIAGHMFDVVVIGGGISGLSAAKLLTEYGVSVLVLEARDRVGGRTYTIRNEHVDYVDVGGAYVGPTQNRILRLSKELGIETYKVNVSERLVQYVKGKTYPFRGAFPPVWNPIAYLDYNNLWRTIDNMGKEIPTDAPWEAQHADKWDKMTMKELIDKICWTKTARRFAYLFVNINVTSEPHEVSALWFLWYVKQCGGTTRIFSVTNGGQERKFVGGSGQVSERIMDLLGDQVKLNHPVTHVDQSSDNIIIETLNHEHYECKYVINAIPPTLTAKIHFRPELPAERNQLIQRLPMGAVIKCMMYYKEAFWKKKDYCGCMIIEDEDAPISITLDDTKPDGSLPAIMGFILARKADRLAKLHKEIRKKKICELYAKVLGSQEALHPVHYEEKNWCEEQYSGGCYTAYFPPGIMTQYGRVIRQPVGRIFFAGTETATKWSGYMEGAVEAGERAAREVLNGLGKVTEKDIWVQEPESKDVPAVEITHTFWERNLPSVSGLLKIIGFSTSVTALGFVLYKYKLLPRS
- procedure-details: Inhibition of recombinant human MAO-A using p-tyramine as substrate preincubated for 15 mins followed by substrate addition measured after 20 mins by amplex red reagent based fluorescence assay
Answer as the number alone; pIC50 is minus log10 of concentration in mol/L.

State the recorded pIC50 for this entry: C#CCN(CCOc1ccc2ccc(=O)oc2c1)Cc1ccc(C(C)C)cc1
4.15

And what about the molecule C#CCN(CCCCOc1ccc2ccc(=O)oc2c1)Cc1ccccc1 ?
4.05

And what about the molecule C#CCN(CCOc1ccc2ccc(=O)oc2c1)Cc1ccccc1 ?
4.05

And what about the molecule C#CCN(C)CCOc1ccc2ccc(=O)oc2c1 ?
4.16

And what about the molecule C#CCN(CCCCOc1ccc2ccc(=O)oc2c1)Cc1ccc(C(C)C)cc1 ?
4.45

And what about the molecule C#CCN(C)CCCOc1ccc2ccc(=O)oc2c1 ?
4.43

And what about the molecule C#CCN(CCCOc1ccc2ccc(=O)oc2c1)Cc1cccc(F)c1 ?
4.53

And what about the molecule C#CCN(CCCCOc1ccc2ccc(=O)oc2c1)Cc1cccc(OC)c1 ?
4.10

And what about the molecule C#CCN(CCOc1ccc2ccc(=O)oc2c1)Cc1ccc(F)c(F)c1 ?
4.39

And what about the molecule C#CCN(CCOc1ccc2ccc(=O)oc2c1)Cc1ccc(OC)cc1 ?
4.26

And what about the molecule C#CCN(CCCCOc1ccc2ccc(=O)oc2c1)Cc1ccc(OC)cc1 ?
4.26

And what about the molecule C#CCN(C)CCCCOc1ccc2ccc(=O)oc2c1 ?
5.48

And what about the molecule C#CCN(CCCCOc1ccc2ccc(=O)oc2c1)Cc1cccc(F)c1 ?
4.16

And what about the molecule C#CCN(CCCOc1ccc2ccc(=O)oc2c1)Cc1ccc(C(C)C)cc1 ?
4.11

And what about the molecule C#CCN(CCCCOc1ccc2ccc(=O)oc2c1)Cc1ccc(F)c(F)c1 ?
4.03

And what about the molecule C#CCN(CCOc1ccc2ccc(=O)oc2c1)Cc1cccc(OC)c1 ?
4.14

And what about the molecule C#CCN(CCCOc1ccc2ccc(=O)oc2c1)Cc1cccc(OC)c1 ?
4.64

And what about the molecule C#CCN(CCCCOc1ccc2ccc(=O)oc2c1)Cc1ccc(C)cc1 ?
4.02
